The measurements presented in this section are drawn from patent US20230067609A1.

- Test system: Poa annua
- experimentDescription: Screen of short-chain organic acids for effects on roots, agarose medium, seeds inoculated with Pseudomonas strain SLB4
- Format: in vivo
- runParameters: organic acids 0-1 mM in 0.7% agarose; 7 days; Pseudomonas strain SLB4

| recordSmiles | Inhibitory Activity On Bact. Entry |
| --- | --- |
| O=C(O)c1ccccc1 | No |
| O=C(O)[C@]1(O)C[C@@H](O)[C@@H](O)[C@H](O)C1 | No |
| O=C(O)CC(O)(CC(=O)O)C(=O)O | No |
| O=C(O)C(=O)O | Yes |
| CCC(=O)O | Yes |
| CCCCCC(=O)O | No |
| CCCC(=O)O | Yes |
| CC(=O)O | No |
